Recorded GI50, one value per entry.
test system: SK-MEL-28; assay: NCI tumour cell line growth inhibition, 48 h
Calls of active or inactive are those of the source. No stated cut-off is given here; in the data, active = GI50 up to about 1.1 µM and inactive = higher.

These solved cases illustrate the format of a correct answer.
Molecule: COc1cc(/C=C2/Oc3c(OC)cccc3C2=O)ccc1O
Assay result: > 100 µM (inactive)
--
Molecule: COc1ccc(Nc2nc3cc(C(F)(F)F)ccc3nc2C(=O)O)cc1
Assay result: 31.7 µM (inactive)
--
Molecule: COc1cc(Nc2nc3cc(C(F)(F)F)ccc3nc2C(=O)O)cc(OC)c1OC
Assay result: 69.2 µM (inactive)
--
Molecule: COCC(/N=C\N1CCCc2ccccc2[C@@H]1CCCCl)C(C)(C)C (some centres not stated)
Assay result: > 100 µM (inactive)
--
Molecule: Cn1c(N)c(/N=N/c2ccc(S(N)(=O)=O)cc2)c(=O)n(C)c1=O
Assay result: > 100 µM (inactive)

Ask: Identify measured GI50 associated with CS/C(=N/C#N)NCCc1c[nH]c2ccccc12
Result: > 100 µM (inactive)

Ask: Identify measured GI50 associated with Nc1nc(CCC(=O)Nc2cccc(C(F)(F)F)c2)cc(-c2cccc3ccccc23)n1
Result: > 100 µM (inactive)

Ask: Identify measured GI50 associated with c1csc(-c2cscc2-c2ccsc2)c1
Result: > 100 µM (inactive)

Ask: Identify measured GI50 associated with CC[P+](C)(C)CC
Result: > 100 µM (inactive)

Ask: Identify measured GI50 associated with CSc1s[s+]c(SC)c1[O-]
Result: 17.1 µM (inactive)

Ask: Identify measured GI50 associated with COC(=O)/C=c1/c2ccccc2n2nc3ccccc3c12
Result: > 100 µM (inactive)

Ask: Identify measured GI50 associated with COc1ccc2c(c1OC)CN1CCc3cc4c(cc3C1C2)OCO4 (configuration not stated) [TETRAHYDROBERBERINE]
Result: > 100 µM (inactive)

###

system: TK-10; experiment: NCI tumour cell line growth inhibition, 48 h
The source made the active and inactive calls. No stated cut-off is given here; in the data, active = GI50 up to about 1.1 µM and inactive = higher.
Hi there, use one of these labels in your reply, thanks! Y for active, N for inactive

Study these solved cases before continuing.
Compound: Oc1ccc(/C=C/c2ccc3cccc(O)c3n2)cc1O
Class: N
//
Compound: O=c1c(C(c2ccc(O)cc2)c2c(O)oc3ccccc3c2=O)c(O)oc2ccccc12
Class: N
//
Compound: Cc1ccc(S(=O)(=O)SCc2ccccc2CSS(=O)(=O)c2ccc(C)cc2)cc1
Class: N
//
Compound: O=C1c2c(ccc3c2CCC3)CC12Cc1ccccc1C2
Class: N
//
Compound: CC(=O)OC1CCn2nnc(COC(=O)NC(C)C)c21 (stereo not given)
Class: N

Ask: Look up the recorded call for C[C@@H]1S[C@H](c2c(F)cccc2Cl)n2c1nc1ccccc12 in this test.
Result: N

Ask: Look up the recorded call for CC(=O)NC1CCC(NC(=O)OC(C)(C)C)C(NC(=O)OC(C)(C)C)C1 (stereo not given) in this test.
Result: N

Ask: Look up the recorded call for C=CCOCn1ccc(N)nc1=O in this test.
Result: N

Ask: Look up the recorded call for O=C1CCC2(CC1CC[S+]([O-])c1ccccc1)OCCO2 (stereo not given) in this test.
Result: N

Ask: Look up the recorded call for CN(C)CC/C(=N\Nc1ccc(Cl)cc1)c1ccccc1 in this test.
Result: Y

Ask: Look up the recorded call for COc1ccc(/C=C2\OC(=O)C(Cl)=C2c2ccc(OC)cc2)cc1 in this test.
Result: N

Ask: Look up the recorded call for CCOc1cn(C2CC(O)C(CO)O2)c(=O)[nH]c1=O (stereo not given) in this test.
Result: N
